# Test system: rat microglia
# protocolText: binding of Aβ-coupled microspheres to microglia
# conditionsUsed: 4 hours at 37° C. (72 h in FIG. 23)
observedProperty: binding of peptide-coupled microspheres to microglia

Aβ36-42: Aβ peptide residues 36-42 (VGGVVIA; Amyloid-beta protein 42; UniProt P05067 707-713, looked up, fragment) : little cell binding
rodent Aβ1-40: rodent Aβ1-40 (5Arg-Gly, 10Tyr-Phe, 13His-Arg) (DAEFGHDSGFEVRHQKLVFFAEDVGSNKGAIIGLMVGGVV; Amyloid-beta protein 40; UniProt P12023 672-711, looked up) : little cell binding
Aβ25-35: Aβ peptide residues 25-35 (GSNKGAIIGLM; Amyloid-beta protein 42; UniProt P05067 696-706, looked up, fragment) : little cell binding

---

# Test system: microglia
# protocolText: inhibition of SpheresAβ1-42 binding to microglia
# Parameters: species or system rat
# conditionsUsed: 10 μmoles/l, 4 hours, 37° C.
observedProperty: inhibition of SpheresAβ1-42 binding by peptides

Aβ36-42: Aβ peptide residues 36-42 (VGGVVIA; Amyloid-beta protein 42; UniProt P05067 707-713, looked up, fragment) : did not
Aβ17-43: Aβ peptide residues 17-43 (LVFFAEDVGSNKGAIIGLMVGGVVIAT; Amyloid-beta protein 42; UniProt P05067 688-714, looked up, fragment) : did not

---

# Test system: NTox released by Aβ1-42-stimulated microglia (neuron killing)
# protocolText: cells
# Assay type: cell-based, rat
# conditionsUsed: Rattus norvegicus; Aβ-stimulated microglia; 72 h; FIG. 31; read-out: ED50 (neuroprotection)
observedProperty: EC50 (nM)
Give bare numbers, in nM.

Ask: Query: EC50; subject: CC(C)(C)OC(=O)[C@@H](N)Cc1ccc(O)cc1
Result: 2

---

# System: Aβ1-42-stimulated microglia
# Type: cell-based, rat
# conditionsUsed: read-out: ED50 (blocking of Aβ1-42 induced neurotoxicity); FIG. 16B
Consider the following substances; for each one, report its IC50.

Aβ13-20: Aβ peptide residues 13-20 (HHQKLVFF; Amyloid-beta protein 42; UniProt P05067 684-691, looked up, fragment) : 250 nM

Ask: Query: IC50; subject: Aβ10-16: Aβ peptide residues 10-16 (YEVHHQK; Amyloid-beta protein 42; UniProt P05067 681-687, looked up, fragment)
Result: ~30 nM

Taken from patent US6043283A.
